target: Estrogen receptor (Homo sapiens)
Sequence (P03372 whole entry): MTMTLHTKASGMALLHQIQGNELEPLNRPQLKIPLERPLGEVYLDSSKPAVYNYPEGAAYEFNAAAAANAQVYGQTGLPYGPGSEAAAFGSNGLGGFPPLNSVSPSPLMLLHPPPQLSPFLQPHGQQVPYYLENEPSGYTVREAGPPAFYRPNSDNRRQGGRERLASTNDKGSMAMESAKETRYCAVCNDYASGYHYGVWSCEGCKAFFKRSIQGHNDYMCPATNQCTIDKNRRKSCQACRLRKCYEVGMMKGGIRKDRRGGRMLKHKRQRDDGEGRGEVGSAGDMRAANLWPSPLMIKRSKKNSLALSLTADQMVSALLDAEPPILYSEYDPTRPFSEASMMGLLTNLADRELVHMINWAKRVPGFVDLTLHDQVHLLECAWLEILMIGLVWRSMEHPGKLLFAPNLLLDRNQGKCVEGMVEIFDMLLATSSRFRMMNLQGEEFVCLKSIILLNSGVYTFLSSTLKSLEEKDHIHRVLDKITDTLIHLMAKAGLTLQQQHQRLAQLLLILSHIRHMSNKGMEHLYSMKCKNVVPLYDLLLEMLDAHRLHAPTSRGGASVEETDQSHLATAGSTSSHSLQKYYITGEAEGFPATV
assay: Binding affinity to human ERalpha measured after 2 hrs by fluorescence polarization plate reader
Rule for this label: 1.0 means IC50 is less than 0.08 µM; 0.0 means IC50 is at least 0.08 µM.

• CCC(Cc1cccnc1)=C(c1ccc(O)cc1)c1ccc(O)cc1 = 1.0
• CC(=C(c1ccc(O)cc1)c1ccc(O)cc1)c1cccnc1 = 1.0
• CC/C(=C(\c1ccc(O)cc1)c1ccc(OCCNC)cc1)c1ccccc1 [ENDOXIFEN] = 1.0
• CCC(CCc1cccnc1)=C(c1ccc(O)cc1)c1ccc(O)cc1 = 1.0
• CC(CCc1cccnc1)=C(c1ccc(O)cc1)c1ccc(O)cc1 = 0.0
• CCC(=C(c1ccc(O)cc1)c1ccc(O)cc1)c1cccnc1 = 0.0
• CCC(=C(c1ccc(O)cc1)c1ccc(O)cc1)c1c[nH]cn1 = 0.0
